# assayed-target: Rap guanine nucleotide exchange factor 3 (Homo sapiens) (UniProt O95398)
# Sequence (O95398 whole entry, looked up): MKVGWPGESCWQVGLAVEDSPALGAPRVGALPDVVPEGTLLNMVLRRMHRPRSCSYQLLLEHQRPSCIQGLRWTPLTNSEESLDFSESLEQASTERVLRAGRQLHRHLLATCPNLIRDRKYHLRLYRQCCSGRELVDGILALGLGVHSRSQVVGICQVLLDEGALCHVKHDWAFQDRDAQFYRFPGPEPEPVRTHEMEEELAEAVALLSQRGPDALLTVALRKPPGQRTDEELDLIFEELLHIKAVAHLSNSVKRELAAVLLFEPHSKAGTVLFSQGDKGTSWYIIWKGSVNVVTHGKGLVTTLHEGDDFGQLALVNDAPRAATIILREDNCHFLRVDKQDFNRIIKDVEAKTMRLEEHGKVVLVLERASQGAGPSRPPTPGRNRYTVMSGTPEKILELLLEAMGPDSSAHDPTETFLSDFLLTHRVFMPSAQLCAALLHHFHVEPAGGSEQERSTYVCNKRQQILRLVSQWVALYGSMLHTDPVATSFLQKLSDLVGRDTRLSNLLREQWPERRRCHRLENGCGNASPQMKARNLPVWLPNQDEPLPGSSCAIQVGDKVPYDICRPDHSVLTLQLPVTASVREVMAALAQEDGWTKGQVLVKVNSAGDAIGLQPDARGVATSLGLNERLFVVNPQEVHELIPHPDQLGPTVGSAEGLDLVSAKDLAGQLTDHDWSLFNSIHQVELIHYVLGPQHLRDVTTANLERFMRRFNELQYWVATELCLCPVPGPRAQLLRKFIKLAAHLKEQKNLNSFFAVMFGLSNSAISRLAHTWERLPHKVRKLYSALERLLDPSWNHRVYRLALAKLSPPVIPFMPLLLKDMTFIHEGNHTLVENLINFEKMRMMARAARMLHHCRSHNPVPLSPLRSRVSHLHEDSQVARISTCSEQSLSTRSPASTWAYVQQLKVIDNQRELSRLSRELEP
# experimental-protocol: Confirmatory qHTS for antagonist of cAMP-regulated guanine nucleotide exchange factor 3 (EPAC1) (AID 1645880); also: nearly all actives have a fitted effect of over 55% in size
# experimental-context: EPAC1 Rap1B-BODIPY-GDP exchange, fluorescence
Results filed as inconclusive are left out. The source made the active and inactive calls. Calls follow the shape of the dose curve; as a rule, active = well fitted inhibition curve with a large enough effect; inconclusive = small, poorly fitted or top-dose-only effect; inactive = no such curve, though single readings can be large or run the other way.
Respond only with the outcome that fits, drawn from yes (1) = active, no (0) = inactive

Before answering, review these 4 worked examples.
COc1ccc(C(=O)/C=C/c2ccc(N(C)C)cc2)c(OC)c1 no (0)
COc1ccc(NC(=O)c2csc3c2CCCCC3)c(OC)c1 no (0)
Cc1[nH][nH]c(=O)c1C(c1c(C)[nH][nH]c1=O)c1cn(Cc2cccc3ccccc23)c2ccccc12 yes (1)
CCOC(=O)c1sc2nc(NC(=O)COc3ccccc3)sc2c1C no (0)

Q: // return assay outcome for Cc1ccc(S(=O)(=O)N2CCN(C(=O)c3ccc4c(c3)OCO4)CC2)cc1
Ans: no (0)

Data credit: PubChem BioAssay (NCATS)
